Numbers sourced from patent US20250345446A1.

- target_system: soluble ectodomain of sortilin-6his (Homo sapiens, UniProt Q99523, V650M)
- Construct: the soluble ectodomain of sortilin-6his is measured by microscale thermophoresis (MST)
- procedure_text: MST binding to soluble ectodomain of sortilin-6his
- reported_conditions: Table 3; monofunctional peptides; MST; read-out: KD score, binding to sortilin (Kd)
Residues, ends and D or L forms follow the SMILES beside them.
Provide the recorded Kd for the entries that follow.

Each molecule below has a reported value. Please supply its Kd.
1. CC[C@H](C)[C@H](N)C(=O)N[C@@H](CCC(N)=O)C(=O)N[C@@H](CC(C)C)C(=O)N[C@@H](CC(C)C)C(=O)O [compound 42] (H-IQLL-OH; N-terminus assumed)
2. CC(C)C[C@H](NC(=O)[C@H](CC(C)C)NC(=O)[C@H](CCC(N)=O)NC(=O)[C@@H](N)CCCCN)C(=O)O [compound 24] (H-KQLL-OH)
3. CC(C)C[C@H](NC(=O)[C@H](CC(C)C)NC(=O)[C@H](Cc1ccc(O)cc1)NC(=O)[C@@H]1CCCN1)C(=O)O [compound 33] (H-PYLL-OH)
4. CSCC[C@H](NC(=O)[C@H](CC(C)C)NC(=O)[C@H](CCC(N)=O)NC(=O)[C@@H](N)CCCNC(=N)N)C(=O)O [compound 165] (H-RQLM-OH)
5. CC[C@H](C)[C@H](NC(=O)[C@H](Cc1ccc(O)cc1)NC(=O)[C@@H]1CCCN1)C(=O)N[C@@H](CC(C)C)C(=O)O [compound 26] (H-PYIL-OH)

Result:
1. 250 to 2500 nM
2. 25 to 250 nM
3. 250 to 2500 nM
4. > 2500 nM
5. 25 to 250 nM

====

- target_system: soluble ectodomain of sortilin-6his (Homo sapiens, UniProt Q99523, V650M)
- Construct: the soluble ectodomain of sortilin-6his is measured by microscale thermophoresis (MST)
- procedure_text: MST binding to soluble ectodomain of sortilin-6his
- reported_conditions: Table 3; monofunctional peptides; MST; read-out: KD score, binding to sortilin (Kd)
pKd: −log10 of the molar value. Residues, ends and D or L forms follow the SMILES beside them.
assay_endpoint: pKd

Ask: Param readout = pKd; param system = soluble ectodomain of sortilin-6his (Homo sapiens, UniProt Q99523, V650M); param query = CC(C)C[C@H](NC(=O)[C@H](CC(C)C)NC(=O)[C@H](CCC(N)=O)NC(=O)[C@@H]1CCCN1)C(=O)O [compound 25] (H-PQLL-OH) ; response: value
Result: 6.60 to 7.60

Ask: Param readout = pKd; param system = soluble ectodomain of sortilin-6his (Homo sapiens, UniProt Q99523, V650M); param query = CC(C)C[C@H](NC(=O)[C@H](CCCNC(=N)N)NC(=O)[C@H](C)NC(=O)[C@H](C)N)C(=O)O [compound 196, AARL-OH] (H-AARL-OH) ; response: value
Result: 5.60 to 6.60

Ask: Param readout = pKd; param system = soluble ectodomain of sortilin-6his (Homo sapiens, UniProt Q99523, V650M); param query = CC(C)C[C@H](NC(=O)[C@H](CC(C)C)NC(=O)[C@H](CCC(N)=O)NC(=O)[C@@H](N)Cc1c[nH]cn1)C(=O)O [compound 41] (H-HQLL-OH; N-terminus assumed) ; response: value
Result: < 5.60

Ask: Param readout = pKd; param system = soluble ectodomain of sortilin-6his (Homo sapiens, UniProt Q99523, V650M); param query = CC[C@H](C)[C@H](NC(=O)[C@H](Cc1ccc(O)cc1)NC(=O)[C@@H](N)Cc1ccccc1)C(=O)N[C@@H](CC(C)C)C(=O)O [compound 31] (H-FYIL-OH) ; response: value
Result: 5.60 to 6.60

Ask: Param readout = pKd; param system = soluble ectodomain of sortilin-6his (Homo sapiens, UniProt Q99523, V650M); param query = CC[C@H](C)[C@H](NC(=O)[C@H](CC(C)C)NC(=O)[C@H](CCC(N)=O)NC(=O)[C@@H](N)CCCNC(=N)N)C(=O)O [compound 163] (H-RQLI-OH) ; response: value
Result: < 5.60

Each compound below has a reported value. Please supply its pKd.
1. CC(C)C[C@H](NC(=O)[C@H](Cc1ccccc1)NC(=O)[C@H](CCC(N)=O)NC(=O)[C@@H](N)CCCNC(=N)N)C(=O)O [compound 38] (H-RQFL-OH)
2. CC(C)C[C@H](NC(=O)[C@H](CC(C)C)NC(=O)[C@H](CCC(N)=O)NC(=O)[C@@H](N)Cc1ccc(O)cc1)C(=O)O [compound 29, YQLL-OH] (H-YQLL-OH)
3. CC(C)C[C@H](NC(=O)[C@H](CC(C)C)NC(=O)[C@H](Cc1ccc(O)cc1)NC(=O)[C@@H](N)CCCNC(=N)N)C(=O)O [compound 27, RYLL-OH] (H-RYLL-OH)
4. CC(C)C[C@H](NC(=O)[C@H](CC(C)C)NC(=O)[C@H](Cc1ccc(O)cc1)NC(=O)[C@@H](N)Cc1ccccc1)C(=O)O [compound 28, FYLL-OH] (H-FYLL-OH)
5. CC(C)C[C@H](NC(=O)[C@H](CC(C)C)NC(=O)[C@H](CCC(N)=O)NC(=O)[C@@H](N)Cc1ccccc1)C(=O)O [compound 23, FQLL-OH] (H-FQLL-OH)
6. CC(C)C[C@H](NC(=O)[C@H](CCCNC(=N)N)NC(=O)[C@H](CCCNC(=N)N)NC(=O)[C@H](CCCCN)NC(=O)[C@H](CCCCN)NC(=O)[C@H](Cc1ccccc1)NC(=O)[C@H](CC(C)C)NC(=O)[C@@H](N)CCCNC(=N)N)C(=O)N[C@@H](CCCNC(=N)N)C(=O)N[C@@H](CO)C(=O)N1CCC[C@H]1C(=O)N[C@@H](CCCNC(=N)N)C(=O)N[C@H](C(=O)N[C@@H](CC(C)C)C(=O)N[C@@H](Cc1ccccc1)C(N)=O)C(C)C

Result:
1. 5.60 to 6.60
2. 6.60 to 7.60
3. 6.60 to 7.60
4. 6.60 to 7.60
5. 6.60 to 7.60
6. < 5.60

Each compound below has a reported value. Please supply its pKd.
1. CC(C)C[C@H](NC(=O)[C@H](CC(C)C)NC(=O)[C@H](CCC(N)=O)NC(=O)[C@H](CCCNC(=N)N)NC(=O)[C@H](CC(C)C)NC(=O)[C@H](C)NC(=O)[C@@H]1CCCN1C(=O)[C@H](CC(=O)O)NC(=O)[C@H](CCCNC(=N)N)NC(=O)[C@H](CC(C)C)NC(=O)[C@@H]1CCCN1C(=O)[C@H](C)NC(=O)[C@H](CC(=O)O)NC(=O)[C@H](Cc1c[nH]c2ccccc12)NC(=O)[C@H](CCCNC(=N)N)NC(=O)[C@@H]1CCCN1C(=O)[C@H](C)NC(=O)[C@H](CCC(=O)O)NC(=O)[C@@H](N)CCCNC(=N)N)C(=O)O
2. CC(C)C[C@H](NC(=O)[C@H](Cc1ccc(O)cc1)NC(=O)[C@H](Cc1ccc(O)cc1)NC(=O)[C@@H](N)CCCNC(=N)N)C(=O)O [compound 36] (H-RYYL-OH)
3. CC(C)C[C@H](NC(=O)[C@H](CCC(N)=O)NC(=O)[C@@H](N)CCCNC(=N)N)C(=O)N[C@@H](Cc1ccccc1)C(=O)O [compound 164] (H-RQLF-OH)
4. CC(C)C[C@H](NC(=O)[C@H](Cc1ccc(O)cc1)NC(=O)[C@H](CCC(N)=O)NC(=O)[C@@H](N)CCCNC(=N)N)C(=O)O [compound 39] (H-RQYL-OH)
5. CC(C)C[C@H](NC(=O)[C@H](Cc1ccccc1)NC(=O)[C@H](Cc1ccc(O)cc1)NC(=O)[C@@H](N)CCCNC(=N)N)C(=O)O [compound 37] (H-RYFL-OH)
6. CC(C)C[C@H](NC(=O)[C@H](Cc1ccc(O)cc1)NC(=O)[C@H](Cc1ccc(O)cc1)NC(=O)[C@@H](N)Cc1ccccc1)C(=O)O [compound 43] (H-FYYL-OH; N-terminus assumed)
7. CC(C)C[C@H](NC(=O)[C@H](CCC(N)=O)NC(=O)[C@@H](N)CCCNC(=N)N)C(=O)O [compound 166] (H-Arg-Gln-Leu-OH)

Result:
["> 7.60", "6.60 to 7.60", "< 5.60", "5.60 to 6.60", "5.60 to 6.60", "< 5.60", "< 5.60"]

====

Provide the recorded Kd for the entries that follow.
- target_system: soluble ectodomain of sortilin-6his (Homo sapiens, UniProt Q99523, V650M)
- Construct: the soluble ectodomain of sortilin-6his is measured by microscale thermophoresis (MST)
- procedure_text: MST binding to soluble ectodomain of sortilin-6his
- reported_conditions: Table 3; monofunctional peptides; MST; read-out: KD score, binding to sortilin (Kd)
Residues, ends and D or L forms follow the SMILES beside them.

Field: example entries. Status: answers known.
Ask: State the recorded Kd for this entry: CC(C)C[C@H](N)C(=O)N[C@@H](Cc1ccc(O)cc1)C(=O)N[C@@H](CCC(=O)O)C(=O)N[C@@H](CC(N)=O)C(N)=O [compound 64] (H-LYEN-NH2; N-terminus assumed)
Result: > 2.5 µM

Ask: State the recorded Kd for this entry: CC[C@H](C)[C@H](NC(=O)[C@H](Cc1ccc(O)cc1)NC(=O)[C@@H]1CCCN1C(=O)[C@H](CCCNC(=N)N)NC(=O)[C@H](CCCNC(=N)N)NC(=O)[C@@H]1CCCN1C(=O)[C@H](CCCCN)NC(=O)[C@H](CC(N)=O)NC(=O)[C@H](CCC(=O)O)NC(=O)[C@H](Cc1ccc(O)cc1)NC(=O)[C@@H](N)CC(C)C)C(=O)N[C@@H](CC(C)C)C(=O)O
Result: 0.025 to 0.25 µM

Ask: State the recorded Kd for this entry: CC(C)C[C@H](NC(=O)[C@H](CC(C)C)NC(=O)[C@H](CCC(N)=O)NC(=O)[C@@H](N)CCCNC(=N)N)C(=O)O [compound 22, RQLL-OH] (H-RQLL-OH)
Result: 0.025 to 0.25 µM

Pending compound:
Ask: State the recorded Kd for this entry: CC[C@H](C)[C@H](NC(=O)[C@H](Cc1ccc(O)cc1)NC(=O)[C@@H](N)CCCNC(=N)N)C(=O)N[C@@H](CC(C)C)C(=O)O [compound 32] (H-RYIL-OH)
Result: 0.25 to 2.5 µM
